Values compiled from ChEMBL document CHEMBL1139463.

system: Hepatitis C virus; assay: Reduction of HCV RNA levels by HCV replicon assay; type: functional, organism-based, Hepacivirus hominis
Examples of compounds with documented EC50 follow.

COMPOUND	EC50 [µM]
CN(C)CCCn1c(N)nc2ccc3c(c21)CC(CN(C)C)O3 (stereo not given)	1.5
CN(C)CCCOc1ccc2nc(N)n(CCCN(C)C)c2c1	37
CN(C)CC1COc2ccc3nc4n(c3c2C1)CC(CN(C)C)CN4 (stereo not given)	5.4
CN(C)CCCOc1ccc2nc3n(c2c1)CC(CN(C)C)CN3 (stereo not given)	29
CN(C)CCCn1c(N)nc2ccc3c(c21)CC(CN(C)C)CO3 (stereo not given)	3.9

* * *

Examples of compounds with documented pKd follow.
assay: Binding affinity to HCV 29-mer 2A RNA by MS based binding assay; parameters: species or system Hepacivirus hominis
pKd: −log10 of the molar value.
REPORTED METRIC: pKd

SMILES STRING	MODIFIER	RESULT VALUE
CN(C)CCCOc1ccc2c(c1)nc(N)n2CCCN(C)C	<	4.00
COc1ccc2nc(N)n(CCCN(C)C)c2c1	=	4.40
CC(C)CCOc1ccc2nc(N)n(CCCN(C)C)c2c1	=	4.32
Nc1nc2ccccc2n1CCCN1CCCC1	=	3.90
Nc1nc2ccccc2n1CCCN1CCOCC1	<	3.70

* * *

Examples of molecules with documented Kd follow.
experiment: Binding affinity to HCV 40-mer RNA by MS based binding assay; design: species or system Hepacivirus hominis
REPORTED METRIC: Kd (nM)

MOLECULE	REPORTED METRIC	RESULT UNITS	MODIFIER	RESULT VALUE
CN(C)CCCn1c(N)nc2ccc3c(c21)CC(CN(C)C)CO3 (stereo unspecified)	Kd	nM	=	860
CN(C)CCCn1c(N)nc2ccccc21	Kd	nM	>	100000
CN(C)CC1COc2ccc3nc4n(c3c2C1)CC(CN(C)C)CN4 (stereo unspecified)	Kd	nM	=	720
CN(C)CCCOc1ccc2nc(N)n(CCCN(C)C)c2c1	Kd	nM	=	17000
CN(C)CCCOc1ccc2nc3n(c2c1)CC(CN(C)C)CN3 (stereo unspecified)	Kd	nM	=	3500
CN(C)CCCn1c(N)nc2ccc3c(c21)CC(CN(C)C)O3 (stereo unspecified)	Kd	nM	=	1700

* * *

assay: Binding affinity to HCV 29-mer 2A RNA by MS based binding assay; set-up: species or system Hepacivirus hominis
pKd: −log10 of the molar value.
REPORTED METRIC: pKd

SMILES STRING	RESULT VALUE
COc1ccc2c(c1)nc(N)n2CCCN(C)C	< 3.70
CN(C)CCCOc1ccc2ncn(CCCN(C)C)c2c1	< 4.00
CN(C)CCCOc1ccc2nc(N)[nH]c2c1	< 4.00
CCCCN(CCCC)CCCn1c(N)nc2ccccc21	< 3.70
CCCn1c(N)nc2ccccc21	< 3.70
COc1cccc2c1nc(N)n2CCCN(C)C	< 3.70
